target: SpRvs167; test: SPOT peptide array binding signal intensity (averaged, normalized) (arbitrary units (background-subtracted, floor 0; scale differs between SH3 domains)); higher = stronger binding of the SH3 domain to the peptide
# class assignment by measured SPOT peptide array binding signal intensity: low = under 10, intermediate = from 10 up to 30, high = 30 and over

> print(dat)
             binder         label
 1  IHTRRPSSTSQYLIR          high
 2  RLSFFFPLDPAYIRN  intermediate
 3  IFLRISINFPLNYPN          high
 4  SLSRRRFSLPSMPNV  intermediate
 5  LSKRLPLRFPEHTSS          high
 6  FFRRSELYLPNSSKA           low
 7  RKLRTVPGVPLIHLT          high
 8  QFDLKMPSKPIHNLK           low
 9  LPPPPPPPPPPPLPQ           low
10  RVTRKRPREPKSTND           low
11  RSVKRPRRAPRPVVS  intermediate
12  NPNRRAPRRPLSTQH  intermediate
13  LYKRKPILLPDPKPL  intermediate
14  ATKSASPTLPTRRSR          high
15  MKRSRPSRSIPYTTP  intermediate
